Could you please report measured SDR+ATP for the items listed next?
- measurement.target: FLuc-C-NLuc (firefly luciferase) (Photinus pyralis, UniProt P08659, form not given/L550V)
- Sequence (P08659 2-550 L550V, form open): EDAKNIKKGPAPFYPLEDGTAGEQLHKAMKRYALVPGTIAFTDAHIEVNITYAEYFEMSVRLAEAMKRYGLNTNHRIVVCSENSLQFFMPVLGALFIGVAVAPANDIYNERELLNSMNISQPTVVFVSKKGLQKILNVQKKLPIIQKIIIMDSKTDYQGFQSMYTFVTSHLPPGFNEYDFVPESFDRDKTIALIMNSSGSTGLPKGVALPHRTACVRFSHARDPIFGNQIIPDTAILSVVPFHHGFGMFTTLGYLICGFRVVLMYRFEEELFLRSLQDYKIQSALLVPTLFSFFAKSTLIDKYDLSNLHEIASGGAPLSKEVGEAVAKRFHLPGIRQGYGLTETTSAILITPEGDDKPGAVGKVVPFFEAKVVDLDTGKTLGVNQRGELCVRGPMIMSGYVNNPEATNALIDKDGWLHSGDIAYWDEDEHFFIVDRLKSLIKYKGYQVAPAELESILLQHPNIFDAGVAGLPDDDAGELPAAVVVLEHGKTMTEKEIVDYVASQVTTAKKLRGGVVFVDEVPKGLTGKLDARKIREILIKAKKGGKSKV
- method.description: SDR assay, FLuc-C-NLuc
- condition.context: Log[Compound], M -8.78; 10 mM ATP
Reply with the value as a number alone.

Lookup: Please supply the value of reported SDR+ATP for the item CC(CNC(=O)C1CCN(C(=O)c2ncn3c2COC(c2ccccc2)C3)CC1)c1ccccc1 (centres unmarked) [compound 00449795]
Found: 7.12

Lookup: Please supply the value of reported SDR+ATP for the item CC(NC(=O)C1CCN(C(=O)c2ncn3c2COC(c2ccc(F)cc2)C3)CC1)c1ccc(F)cc1 (centres unmarked) [NCGC00449825]
Found: 1.06

Lookup: Please supply the value of reported SDR+ATP for the item CC1CCC(NC(=O)C2CCN(C(=O)c3ncn4c3COC(c3ccc(Cl)cc3)C4)CC2)CC1 (centres unmarked) [NCGC00449845]
Found: 0.25

Lookup: Please supply the value of reported SDR+ATP for the item O=C(Nc1cccc(F)c1)C1CCN(C(=O)c2ncn3c2COC(c2ccccc2)C3)CC1 (centres unmarked) [NCGC00449914]
Found: 6.04

Lookup: Please supply the value of reported SDR+ATP for the item COc1ccc(NC(=O)C2CCN(C(=O)c3ncn4c3COC(c3ccccc3)C4)CC2)cc1Cl (centres unmarked) [NCGC00449919]
Found: 7.62
